- experimental.details: in vitro
- condition.details: human, hela cells, % viability
outcome.measure: viability at 28.5 h, 10 µM

>>> endpoint_value("COc1ccccc1C1(NC(=O)c2cnsc2)CCCC1 [CBK283643]")
"84.5%"
>>> endpoint_value("CC[C@H](Cn1c(=O)oc2ccccc21)NC(=O)C1CCCC1 [CBK284542]")
"97.2%"
>>> endpoint_value("O=C(Nc1nnc[nH]1)c1ccccc1CCc1ccccc1 [CBK268616]")
"95.9%"
>>> endpoint_value("CCOc1ccc(C(=O)C2=C(O)C(=O)N(CCN(C)C)C2c2ccc(N(C)C)cc2)c(C)c1 (stereo not shown) [CBK264603]")
"110%"
>>> endpoint_value("CCCC/C=C/c1cn2ccnc2c(NCCc2cccnc2)n1 [CBK066235]")
"105%"
>>> endpoint_value("O=C(NCc1ccccn1)c1ccc(CNS(=O)(=O)c2cccc(C(F)(F)F)c2)cc1 [CBK267291]")
"87.7%"
>>> endpoint_value("COC(=O)C1CCN(Cc2nc3sc4c(c3c(=O)[nH]2)CCC(C)C4)CC1 (stereo not shown) [CBK304978]")
"99.2%"
>>> endpoint_value("CC1(C)CC(=O)C2=C(C1)c1c(ccc3ccccc13)NC2c1ccc(N2CCC(Cc3ccccc3)CC2)c([N+](=O)[O-])c1 (stereo not shown) [CBK262944]")
"94.2%"
>>> endpoint_value("Nc1c(C(=O)O)nnn1Cc1ccccc1 [CBK263796]")
"95.6%"
>>> endpoint_value("OCc1ccccc1-c1cn2ccnc2c(Nc2ccccc2)n1 [CBK037999]")
"108%"
>>> endpoint_value("COc1ccc(-c2ccc3nnc(SCc4cccnc4)n3n2)cc1 [CBK287680]")
"108%"
>>> endpoint_value("O=C(c1n[nH]c2c1CCC2)N1CCC(c2ccccc2)C1 (stereo not shown) [CBK281851]")
"87.9%"
>>> endpoint_value("CN(C)S(=O)(=O)c1ccc(Cl)c(C(=O)Nc2cccc(C(=O)O)c2)c1 [CBK265727]")
"90.9%"
>>> endpoint_value("CNS(=O)(=O)c1cccc2c1CCN(C(=O)NC1CCOC1)C2 (stereo not shown) [CBK306172]")
"106%"
>>> endpoint_value("Cc1nc(N)nc(N2CCN(C)CC2)n1 [CBK015681]")
"100%"
>>> endpoint_value("CC(=O)Oc1ccc(NC(=O)CC2Nc3cc(C)c(C)cc3NC2=O)cc1 (stereo not shown) [CBK263088]")
"89.5%"
>>> endpoint_value("CCCCNC(=O)N1CCN(c2ccccc2Cl)CC1 [CBK043777]")
"106%"
>>> endpoint_value("CC(=O)N1CCC[C@H]2NC(=O)CNC(=O)C3(C/C=C/C[C@H]21)CCN(CC(N)=O)CC3 [CBK292135]")
"84.4%"
>>> endpoint_value("CC(=O)N1CC[C@H]2NC(=O)CNC(=O)C3(CCCC[C@H]2C1)CCN(Cc1ccc(Cl)cc1)CC3 [CBK292119]")
"90.5%"

###

Reported viability at 28.5 h, 10 µM values follow for various compounds
- experimental.details: in vitro
- condition.details: human, hela cells, % viability
outcome.measure: viability at 28.5 h, 10 µM (%)

>>> endpoint_value("O=C(CSCc1ccc(Cl)cc1Cl)Nc1nccs1")
103
>>> endpoint_value("O=C(Nc1cncc(OC2CCNCC2)n1)c1cccnc1 [CBK036375T]")
92.1
>>> endpoint_value("O=C(NCC1(CCO)CC1)c1c[nH]nc1-c1cc2ccccc2o1")
94.5
>>> endpoint_value("CC(C)Cc1nnc(-c2ccccc2Cl)n1CC1CC1")
98.1
>>> endpoint_value("O=C(O)C(Cc1ccccc1)n1cnnn1 (stereo not shown)")
109
>>> endpoint_value("CCOc1cc(C)c(C(C)C)cc1S(=O)(=O)NCCN1CCOCC1")
110
>>> endpoint_value("CCN(Cc1ccncc1)C(=O)NCCN1CCOCC1")
92.1
>>> endpoint_value("CCOC(=O)C1CCCN(Cc2cccc(Cl)c2Cl)C1 (stereo not shown)")
85.2
>>> endpoint_value("N#C/C(=C\\c1ccc(Oc2ccc(C(F)(F)F)cc2[N+](=O)[O-])cc1)c1nc2ccccc2[nH]1")
92.4
>>> endpoint_value("CN1C2CCC1CC(OC(=O)c1cccnc1)C2 (stereo not shown)")
100

###

viability at 28.5 h, 10 µM values by entry
- experimental.details: in vitro
- condition.details: human, hela cells, % viability
outcome.measure: viability at 28.5 h, 10 µM (%)

>>> endpoint_value("CSc1nc(C#N)c(N)c(SC2C=CCCC2)n1 (stereo not drawn)")
89.4
>>> endpoint_value("COc1cccc(-c2csc(N3CCN(C(=O)Nc4ccccc4)CC3)n2)c1")
95.4
>>> endpoint_value("CCN(CC)C(=O)c1sccc1NS(=O)(=O)c1ccc(OC)c(OC)c1")
94.3
>>> endpoint_value("CCN(CC)CCCNC(=O)N1CCCC(C(=O)N(CC)CC)C1 (stereo not drawn)")
94.1
>>> endpoint_value("Cn1nc(-c2ccc(F)cc2)n(-c2ccncc2)c1=O")
96.5
>>> endpoint_value("Cn1c(C(=O)OCC(=O)NC(C)(C)C)cc2occc21")
109
>>> endpoint_value("COCC(=O)N1CCN(C(=O)c2cccs2)[C@@H](C(=O)OC)C1")
111
>>> endpoint_value("COc1ccc(NS(=O)(=O)c2ccc(OCC(=O)N3CCN(C)CC3)cc2)cc1Cl")
85.8
>>> endpoint_value("Cc1nc(C)c(C(=O)N2CCC(c3cc4c(C)cccc4cn3)CC2)o1")
108

###

- experimental.details: in vitro
- condition.details: human, hela cells, % viability
Below is a list of entries, each paired with its recorded viability at 28.5 h, 10 µM value.
outcome.measure: viability at 28.5 h, 10 µM (%)

>>> endpoint_value("NC(=O)CSc1nnc(-c2ccncc2)[nH]1")
107
>>> endpoint_value("O=C(Nc1cnc(-c2ccc(F)c(Cl)c2)c(-c2cccnc2)n1)c1ccc(N2CCCC2=O)cc1")
107
>>> endpoint_value("O=C(O)C1CCCCC1C(=O)NCCc1ccc(Cl)cc1 (centres unmarked)")
98.5
>>> endpoint_value("CN(Cc1ccco1)C(=O)NC1CCCc2c1cnn2CCO (centres unmarked)")
108
>>> endpoint_value("O=S(=O)(/N=C/N1CCCC1)c1ccccc1")
89.4

###

- experimental.details: in vitro
- condition.details: human, hela cells, % viability
outcome.measure: viability at 28.5 h, 10 µM (%)

>>> endpoint_value("COc1ccccc1CCCN1CCC2(C1)NCCc1c2[nH]c2ccccc12 (centres unmarked) [CBK040257]")
91
>>> endpoint_value("CCn1cc(C(=O)N2C[C@H](C(=O)OC)[C@@H](c3ccc(F)cc3)C2)cn1 [CBK283719]")
89.7
>>> endpoint_value("Nc1nnc(C(F)(F)F)s1 [CBK038099]")
119
>>> endpoint_value("CC1CCc2c(C(=O)N3CCC4(CC3)NC(=O)NC4=O)csc2C1 (centres unmarked) [CBK305741]")
101
>>> endpoint_value("O=C(CN1CCOCC1)N1CCC(c2cccc(Cc3ccc(C(F)(F)F)cc3)n2)CC1 [CBK286508]")
101
>>> endpoint_value("CN(C)S(=O)(=O)NC1CC(C)(C)Cc2c1cnn2-c1ccc(F)cc1 (centres unmarked) [CBK306646]")
112
>>> endpoint_value("c1cncc(-c2nnc([C@H]3CCN(C4CCOCC4)C3)o2)c1 [CBK289398]")
93.5
>>> endpoint_value("COc1cccc(-c2cnc(N(C)S(C)(=O)=O)c(C(=O)NC3CCCCC3)c2)c1 [CBK106446]")
109
>>> endpoint_value("O=C(c1ccco1)c1cnc2ccccn2c1=O [CBK010791]")
109
>>> endpoint_value("c1cncc(-c2cnn(-c3ccc4[nH]ccc4c3)n2)c1 [CBK112820]")
85.7
>>> endpoint_value("C/C(=N\\NS(=O)(=O)c1ccc(C)cc1)C(C)(C)CC(=O)O [CBK263601]")
102
>>> endpoint_value("Clc1nc2ccccc2nc1N1CCCC1 [CBK083596]")
101
>>> endpoint_value("COc1ccc(C(=O)Nc2ccc(N3CCN(C(=O)C(C)(C)C)CC3)cc2)cc1 [CBK270266]")
99
>>> endpoint_value("CCN(CC)C(=O)CN1C(=O)N2CCCN=C2c2ccccc21 [CBK284398]")
84.4
>>> endpoint_value("Cc1c(CN2CCCC2(C)C(=O)NC2CCCC2)cnn1C (centres unmarked) [CBK281960]")
108
>>> endpoint_value("CC(C)[C@@H](CO)Nc1nccnc1-c1ccoc1 [CBK036648]")
86.6
>>> endpoint_value("COc1ccc(CSc2nc3sc4c(c3c(=O)n2Cc2ccccc2)CCN(Cc2ccccc2)C4)cc1 [CBK263714]")
85.1
>>> endpoint_value("O=C(NCCCN1CCCCC1)C1CC(=O)N(Cc2ccco2)C1 (centres unmarked) [CBK305145]")
93.1
>>> endpoint_value("Cc1cc(C)n(CC(=O)NC(Cc2cccs2)c2nccs2)n1 (centres unmarked) [CBK284686]")
85.8
>>> endpoint_value("CC1CC(C)CN(C(=O)c2ccc(-n3ccnc3)c(-n3cccc3)c2)C1 (centres unmarked) [CBK285372]")
101
